tested on: WM-266-4 cells; test: Tumor cell line proliferation assay (CellTiter Glo), WM-266-4; format: cell-based; conditions: Homo sapiens, 96 hours, read-out: WM-266-4 (V599D) Cell Proliferation IC50
pIC50: −log10 of the molar value.
PROPERTY_NAME: pIC50

Below, each entry is followed by its recorded pIC50 result.
MOLECULE	PROPERTY_NAME	READOUT_VALUE
Cc1cc(-c2n[nH]c3cc4c(cc23)CN(Cc2cc(F)cc(F)c2)C(=O)N4)ccn1 [Example 7]	pIC50	≥ 6.60
Cc1cc(-c2n[nH]c3cc4c(cc23)CN([C@H](C)c2ccc(F)cc2)C(=O)N4)ccn1 [Example 5]	pIC50	6.00 to 6.60
Cc1cc(-c2n[nH]c3cc4c(cc23)CN(Cc2ccc(F)c(Cl)c2)C(=O)N4)ccn1 [Example 8]	pIC50	≥ 6.60

Exercise: // lookup pIC50 for Cc1cc(-c2n[nH]c3cc4c(cc23)CN(Cc2ccc(Cl)cc2)C(=O)N4)ccn1 [Example 14]
Key: 6.00 to 6.60

Exercise: pIC50 for O=C1Nc2cc3[nH]nc(-c4ccncc4)c3cc2CN1Cc1cccc(Cl)c1 [Example 3] ?
Key: ≥ 6.60

Exercise: If you can, please state the reported pIC50 value of Cc1cc(-c2n[nH]c3cc4c(cc23)CN([C@H](C)c2ccccc2)C(=O)N4)ccn1 [Example 2] .
Key: 6.00 to 6.60

Exercise: Can you share its pIC50? I mean this molecule: Cc1cc(-c2n[nH]c3cc4c(cc23)CN(Cc2ccc(F)c(F)c2)C(=O)N4)ccn1 [Example 13]
Key: 6.00 to 6.60

Exercise: Fill in: pIC50 of Cc1cc(-c2n[nH]c3cc4[nH]c(=O)c(C(C)c5ccccc5)cc4cc23)ccn1 (centres unmarked) [Example 22] is ___
Key: ≥ 6.60

* * *

tested on: phospho-p90 RSK (RSK1 Thr359/Ser363) in A375 (Braf V600E) cells; assay: Phospho-p90 RSK ELISA using A375 (Braf V600E) cells; format: cell-based; details: Homo sapiens, A-375, 2 hours compound treatment, read-out: Cellular Phospho-p90RSK IC50
PROPERTY_NAME: IC50

For orientation, consider the following solved cases.
MOLECULE	TARGET_OR_SYSTEM	IC50
Cn1cc(-c2n[nH]c3cc4c(cc23)CN([C@@H]2CCN(CC(F)(F)F)C2)C(=O)N4)cn1 [Example 259]	phospho-p90 RSK (RSK1 Thr359/Ser363) in A375 (Braf V600E) cells	≤ 250 nM
Cc1cc(-c2n[nH]c3cc4c(cc23)CN([C@@H]2CCCN(CCc3ccccc3)C2)C(=O)N4)ccn1 [Example 145]	phospho-p90 RSK (RSK1 Thr359/Ser363) in A375 (Braf V600E) cells	250 to 1000 nM
Cc1cc(-c2n[nH]c3cc4[nH]c(=O)n(Cc5ccccc5)c(=O)c4cc23)ccn1 [Example 27]	phospho-p90 RSK (RSK1 Thr359/Ser363) in A375 (Braf V600E) cells	250 to 1000 nM
Cc1ncc(-c2n[nH]c3cc4c(cc23)CN(Cc2cccc(Cl)c2)C(=O)N4)cn1 [Example 90]	phospho-p90 RSK (RSK1 Thr359/Ser363) in A375 (Braf V600E) cells	≤ 250 nM
COCCOCCN1Cc2cc3c(-c4ccnc(C)c4)n[nH]c3cc2NC1=O [Example 45]	phospho-p90 RSK (RSK1 Thr359/Ser363) in A375 (Braf V600E) cells	250 to 1000 nM
Cc1cc(-c2n[nH]c3cc4c(cc23)CN([C@@H]2CCN(Cc3ccccc3)C2)C(=O)N4)ccn1 [Example 146]	phospho-p90 RSK (RSK1 Thr359/Ser363) in A375 (Braf V600E) cells	≤ 250 nM
Cc1cc(-c2n[nH]c3cc4c(cc23)CN([C@@H]2CCCN(CCC(C)(C)C)C2)C(=O)N4)ccn1 [Example 136]	phospho-p90 RSK (RSK1 Thr359/Ser363) in A375 (Braf V600E) cells	250 to 1000 nM
Cc1cc(-c2n[nH]c3cc4c(cc23)CN([C@@H]2CN(CC(F)F)C[C@H]2c2ccccc2)C(=O)N4)ccn1 (mixture of isomers) [Example 362]	phospho-p90 RSK (RSK1 Thr359/Ser363) in A375 (Braf V600E) cells	≤ 250 nM

Exercise: Item Cn1cc(-c2n[nH]c3cc4c(cc23)CN([C@@H]2CCCN(Cc3ccccc3)C2)C(=O)N4)cn1 [Example 285] has what recorded IC50?
Key: ≤ 250 nM

Exercise: Which IC50 value is on record for Cc1cc(-c2n[nH]c3cc4c(cc23)CN(Cc2ccc(C(F)(F)F)cc2)C(=O)N4)cc(C)n1 [Example 233] ?
Key: ≤ 250 nM

Exercise: What value of IC50 has been recorded for this entry: Cc1cc(-c2n[nH]c3cc4c(cc23)CN([C@H]2CCCN(Cc3ccccc3)C2)C(=O)N4)cc(C)n1 [Example 363]
Key: > 1000 nM

FYI, the data here is from patent US10301317B2.
